Measured values drawn from BigSolDB 2.1 for this set.

conditions: in ethanol, 293.15 K
measured-property: solubility (mole fraction)

Please list solubility (mole fraction) recorded for the compound O=[N+]([O-])/N=C1\NCCN1Cc1ccc(Cl)nc1
0.0006

====

conditions: in methanol, 323.15 K
measured-property: solubility (mole fraction)
// no unit, no text: just the number

Please list solubility (mole fraction) recorded for the molecule O=[N+]([O-])/N=C1\NCCN1Cc1ccc(Cl)nc1
0.0044

====

conditions: in ethyl acetate, 303.15 K
measured-property: solubility (mole fraction)
// no unit, no text: just the number

Please list solubility (mole fraction) recorded for the molecule O=[N+]([O-])/N=C1\NCCN1Cc1ccc(Cl)nc1
0.0034
